Where a name gives a salt, the structure may show the parent alone.
Value Type: Ki

Tell me reported Ki for Cc1ccc(F)c(CNc2ncc3n(c2=O)[C@H](C(=O)N[C@H](C)c2ccc(N)nc2)CC3)c1 [Compound 199, trifluoroacetate] , tested with human α-thrombin (Homo sapiens).
2500 to 10000 nM

Can you look up Ki on human α-thrombin (Homo sapiens) for CC[C@@H](Nc1ncc2n(c1=O)[C@H](C(=O)NCc1cc3c(s1)CNC3)CC2)c1ccc(C)cc1 [Compound 266, trifluoroacetate] ?
< 500 nM

Under human α-thrombin (Homo sapiens): Ki value of O=C(NCc1cc2c(s1)CNC2)[C@@H]1CCc2cnc(N[C@@H](c3ccccc3)C3CC3)c(=O)n21 [Compound 259, trifluoroacetate] ?
< 500 nM

---

pKi: −log10 of the molar value. Structures can show the parent of a compound that is named as a salt.
Value Type: pKi

Param readout = pKi; param system = MASP-2 (CCP1-CCP2-SP) (Homo sapiens, UniProt O00187); param query = Cc1nc(N)ccc1CNC(=O)[C@@H]1CCc2c(Cl)nc(NCc3cccc(-c4ccccc4)c3)c(=O)n21 [Compound 221, trifluoroacetate] ; response: value
Sequence (O00187 445-686 limits assumed): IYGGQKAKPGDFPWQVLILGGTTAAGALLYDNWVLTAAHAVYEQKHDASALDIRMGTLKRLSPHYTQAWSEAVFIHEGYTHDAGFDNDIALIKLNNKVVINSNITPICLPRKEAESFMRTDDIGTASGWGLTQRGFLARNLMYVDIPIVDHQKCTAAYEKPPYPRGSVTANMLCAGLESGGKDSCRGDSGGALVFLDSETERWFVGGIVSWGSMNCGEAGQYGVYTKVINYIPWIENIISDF
Sequence (O00187 287-444 partner limits assumed): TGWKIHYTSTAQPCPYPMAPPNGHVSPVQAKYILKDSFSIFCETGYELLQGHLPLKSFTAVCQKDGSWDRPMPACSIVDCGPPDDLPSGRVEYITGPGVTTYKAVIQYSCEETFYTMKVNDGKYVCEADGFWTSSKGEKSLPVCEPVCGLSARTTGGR
> 6.30

Provide value of pKi for this record tested with MASP-2 (CCP1-CCP2-SP) (Homo sapiens, UniProt O00187): C[C@@H](CNc1ncc2n(c1=O)[C@H](C(=O)NCc1cc3c(s1)CNC3)CC2)c1ccccc1 [Compound 276, trifluoroacetate]
> 6.30

API: value(readout=pKi, system=MASP-2 (CCP1-CCP2-SP) (Homo sapiens, UniProt O00187)) for record Cc1cc(F)cc(CNc2nc(-c3ccnn3C)c3n(c2=O)[C@H](C(=O)NCc2ccc(N)nc2C)CC3)c1 [Compound 175, trifluoroacetate]
> 6.30

Form field: pKi recorded for CC(C)[C@@H](Nc1ncc2n(c1=O)[C@H](C(=O)N[C@@H](C)c1cc3c(s1)CNC3)CC2)c1ccccc1 [Compound 275, trifluoroacetate] with MASP-2 (CCP1-CCP2-SP) (Homo sapiens, UniProt O00187) (enter value)
> 6.30

What measured pKi is associated with Cc1cc(F)cc(CNc2ncc3n(c2=O)[C@H](C(=O)NCc2cnc4[nH]ccc4c2)CC3)c1 [Compound 183] on MASP-2 (CCP1-CCP2-SP) (Homo sapiens, UniProt O00187)?
5.60 to 6.30

Fill in the recorded pKi for this molecule, with MASP-2 (CCP1-CCP2-SP) (Homo sapiens, UniProt O00187) as test system: Cc1cc(C)cc(CNc2ncc3n(c2=O)[C@H](C(=O)NCc2cc(Cl)ccc2-n2cnnn2)CC3)c1 [Compound 284]
> 6.30

Lab note: need pKi for Cc1cccc(CNc2nc(Cl)c3n(c2=O)[C@H](C(=O)NCc2cc4cnccc4[nH]2)CC3)c1C [Compound 15] on MASP-2 (CCP1-CCP2-SP) (Homo sapiens, UniProt O00187), anyone have it?
> 6.30

---

Answer each item with its documented Ki.
Where a name gives a salt, the structure may show the parent alone.

Form: Entry = `Cc1cc(F)cc(CNc2ncc3n(c2=O)[C@H](C(=O)NCc2cnc4[nH]ccc4c2)CC3)c1` | System = human α-thrombin (Homo sapiens, UniProt P00734) | Ki = ____
2500 to 10000 nM

Form field - read-out: Ki; system: human α-thrombin (Homo sapiens, UniProt P00734); submitted item: Cc1cc(C)cc(CNc2ncc3n(c2=O)[C@H](C(=O)NCc2ccc(N)nc2C)CC32CC2)c1 [Compound 122, trifluoroacetate]
< 500 nM

Reported Ki for human α-thrombin (Homo sapiens, UniProt P00734), given Cc1cc(C)cc(CNc2ncc3n(c2=O)[C@H](C(=O)NCc2ccc(CN)nc2)CC3)c1 [Compound 109, trifluoroacetate] ?
2500 to 10000 nM

State its Ki on human α-thrombin (Homo sapiens, UniProt P00734): Cc1nc(N)ccc1CNC(=O)C1CCc2c(Cl)nc(NCc3cncnc3)c(=O)n21 (stereo not shown)
2500 to 10000 nM

Could you share what Ki was measured for Cc1cc(F)cc(CNc2nc(C3CC3)c3n(c2=O)[C@H](C(=O)NCc2ccc(N)nc2C)CC3)c1 [Compound 210, trifluoroacetate] , tested on human α-thrombin (Homo sapiens, UniProt P00734)?
500 to 2500 nM

# value lookup — system human α-thrombin (Homo sapiens, UniProt P00734), readout Ki, item `Cc1ccc(F)cc1CNc1ncc2n(c1=O)[C@H](C(=O)NCc1cc3cnccc3[nH]1)CC2`
500 to 2500 nM

Tell me reported Ki for `Cc1cccc(CNc2nc(Cl)c3n(c2=O)[C@H](C(=O)NCc2cc4cnccc4[nH]2)CC3)c1C` , tested with human α-thrombin (Homo sapiens, UniProt P00734).
2500 to 10000 nM

Recorded Ki for `CC[C@H]1C[C@@H](C(=O)NCc2ccc(N)nc2C)n2c1c(Cl)nc(NCc1ccccc1)c2=O` with human α-thrombin (Homo sapiens, UniProt P00734), please?
500 to 2500 nM

GET /values?readout=Ki&system=human α-thrombin (Homo sapiens, UniProt P00734)&item= `Cc1nc(N)ccc1CNC(=O)[C@@H]1CCc2cnc(NCc3ccccc3)c(=O)n21`
< 500 nM

For the record `Cc1cc(C)cc(CNc2ncc3n(c2=O)[C@H](C(=O)NCc2cnc4c(c2)CNC4)CC3)c1` , what value of Ki is listed for human α-thrombin (Homo sapiens, UniProt P00734)?
10000 to 25000 nM

Recall the recorded Ki for O=C(NCc1cc2cnccc2[nH]1)[C@@H]1CCc2c(Cl)nc(NCC3CCOCC3)c(=O)n21 [Compound 101, trifluoroacetate] with human α-thrombin (Homo sapiens, UniProt P00734) and state it.
> 25000 nM

Entry `Cc1cc(F)cc(CNc2ncc3n(c2=O)[C@H](C(=O)NCc2cc4cnc(C)cc4[nH]2)CC3)c1` , system human α-thrombin (Homo sapiens, UniProt P00734): what Ki was measured?
10000 to 25000 nM

Lookup: Ki / human α-thrombin (Homo sapiens, UniProt P00734) / `COc1cc(C)cc(CNc2ncc3n(c2=O)[C@H](C(=O)NCc2ccc(N)nc2C)C[C@@H]3Cc2ccccc2)c1`
< 500 nM

Please tell me: Ki of `COCCCCNc1nc(Cl)c2n(c1=O)[C@H](C(=O)NCc1cc3cnccc3[nH]1)CC2` , system human α-thrombin (Homo sapiens, UniProt P00734)?
10000 to 25000 nM

Given the entry CC(C)[C@@H](Nc1ncc2n(c1=O)[C@H](C(=O)N[C@@H](C)c1cc3c(s1)CNC3)CC2)c1ccccc1 [Compound 275, trifluoroacetate] , what Ki was observed with human α-thrombin (Homo sapiens, UniProt P00734)?
> 25000 nM

Ki of Cc1nc(N)ccc1CNC(=O)[C@@H]1CCc2cnc(NCc3cccc(-n4cccn4)c3)c(=O)n21 [Compound 169, trifluoroacetate] on human α-thrombin (Homo sapiens, UniProt P00734)?
< 500 nM

So what Ki did Cc1nc(N)ccc1CNC(=O)[C@@H]1CCc2cnc(NCc3cnn(C)c3)c(=O)n21 [Compound 167, trifluoroacetate] get with human α-thrombin (Homo sapiens, UniProt P00734)?
500 to 2500 nM

# get_value(readout= Ki, system= human α-thrombin (Homo sapiens, UniProt P00734)) for `Cc1nc(N)ccc1CNC(=O)[C@@H]1CCc2cnc(NCc3ccc4c(cnn4C)c3)c(=O)n21`
< 500 nM

Form entry - test system: human α-thrombin (Homo sapiens, UniProt P00734); read-out: Ki; compound: C[C@@H]1C[C@@H](C(=O)NCc2cc3cnccc3[nH]2)n2c1cnc(NCc1ccccc1)c2=O [Compound 227, trifluoroacetate]
2500 to 10000 nM

Record Cc1cc(C)cc(CNc2ncc3n(c2=O)[C@H](C(=O)NCc2cc4cnc(C)cc4[nH]2)CC32CC2)c1 [Compound 124, trifluoroacetate] : what is its Ki with human α-thrombin (Homo sapiens, UniProt P00734)?
> 25000 nM

Recall the recorded Ki for C[C@@H](NC(=O)[C@@H]1CCc2cnc(N[C@@H](c3ccccc3)C3CC3)c(=O)n21)c1cc2c(s1)CNC2 [Compound 272, trifluoroacetate] with human α-thrombin (Homo sapiens, UniProt P00734) and state it.
2500 to 10000 nM

Find the measured Ki: item Nc1nc(Cl)c2n(c1=O)[C@H](C(=O)NCc1cc3cnccc3[nH]1)CC21CCCC1 [Compound 232, trifluoroacetate] , target or system human α-thrombin (Homo sapiens, UniProt P00734).
> 25000 nM

Ki of Cc1cc(F)cc(CNc2nc(-c3ccnn3C)c3n(c2=O)[C@H](C(=O)NCc2ccc(N)nc2C)CC3)c1 [Compound 175, trifluoroacetate] on human α-thrombin (Homo sapiens, UniProt P00734)?
500 to 2500 nM

Lab note: need Ki with human α-thrombin (Homo sapiens, UniProt P00734) for entry `Cc1cc(C)cc(CNc2ncc3n(c2=O)[C@H](C(=O)NCc2ccncc2)CC3)c1` , please look it up.
> 25000 nM

Under human α-thrombin (Homo sapiens, UniProt P00734): Ki value of `Cc1cc(C)cc(CNc2ncc3n(c2=O)[C@H](C(=O)NCc2ccc4[nH]ncc4c2)CC3)c1` ?
500 to 2500 nM

Find the measured Ki: item `Cc1ccc(F)c(CNc2ncc3n(c2=O)[C@H](C(=O)NCc2cc4cnccc4[nH]2)CC3)c1` , target or system human α-thrombin (Homo sapiens, UniProt P00734).
< 500 nM

Any idea what Ki came out for Cc1cc(C)cc(CNc2ncc3n(c2=O)[C@H](C(=O)NC(C)c2cc4cnccc4[nH]2)CC3)c1 (stereo partly shown) [Compound 43, trifluoroacetate] on human α-thrombin (Homo sapiens, UniProt P00734)?
> 25000 nM

Value wanted: Ki (human α-thrombin (Homo sapiens, UniProt P00734)) of entry `CC[C@H]1C[C@@H](C(=O)NCc2cc3cnccc3[nH]2)n2c1cnc(NCc1ccccc1)c2=O`
500 to 2500 nM
